system under test: NOV1401; also: test concentration or dose not given here
Sequence (VL, as listed by the source): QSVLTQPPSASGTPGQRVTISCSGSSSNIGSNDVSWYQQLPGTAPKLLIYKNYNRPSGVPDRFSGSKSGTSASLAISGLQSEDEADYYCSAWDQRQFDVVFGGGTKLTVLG
test summary: cell-based or functional assay
In this section, each of the binders is paired with its reported TGA percentage reversal, NOV1401/anti NOV1401 ratio 1/1 (n/n).
metric name: TGA percentage reversal, NOV1401/anti NOV1401 ratio 1/1 (n/n) (%)

binder: IDT7 (Fab, V domains shown, Fab; also called anti-NOV1401 Fab IDT7) VH: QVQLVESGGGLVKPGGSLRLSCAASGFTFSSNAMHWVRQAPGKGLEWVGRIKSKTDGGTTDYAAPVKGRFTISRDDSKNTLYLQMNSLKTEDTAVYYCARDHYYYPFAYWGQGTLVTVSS VL: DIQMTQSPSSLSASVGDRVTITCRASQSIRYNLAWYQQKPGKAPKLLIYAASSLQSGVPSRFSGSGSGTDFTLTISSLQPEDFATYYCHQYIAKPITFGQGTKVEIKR
observed value: 50
//
binder: IDT12 (antibody, human IgG1, kappa, V domains shown, also called anti-NOV1401 IgG IDT12; full length IgG format for IDT2) VH: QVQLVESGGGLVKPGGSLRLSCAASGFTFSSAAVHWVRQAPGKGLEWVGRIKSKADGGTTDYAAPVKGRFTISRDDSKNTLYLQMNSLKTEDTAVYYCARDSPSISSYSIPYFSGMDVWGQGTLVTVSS VL: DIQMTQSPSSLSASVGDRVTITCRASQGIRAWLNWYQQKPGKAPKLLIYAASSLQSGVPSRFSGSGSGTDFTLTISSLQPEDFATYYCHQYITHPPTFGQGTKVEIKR
observed value: 60
//
binder: IDT4 (Fab, V domains shown, Fab; also called anti-NOV1401 Fab IDT4) VH: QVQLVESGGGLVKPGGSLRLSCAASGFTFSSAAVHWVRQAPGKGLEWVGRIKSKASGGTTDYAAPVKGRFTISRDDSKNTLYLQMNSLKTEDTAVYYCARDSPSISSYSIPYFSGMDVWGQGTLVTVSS VL: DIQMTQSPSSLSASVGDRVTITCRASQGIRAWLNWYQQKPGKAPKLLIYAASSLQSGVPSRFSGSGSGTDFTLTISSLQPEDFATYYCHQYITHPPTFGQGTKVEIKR
observed value: 33
//
binder: IDT11 (antibody, human IgG1, kappa, V domains shown, also called anti-NOV1401 IgG IDT11; full length IgG format for IDT1) VH: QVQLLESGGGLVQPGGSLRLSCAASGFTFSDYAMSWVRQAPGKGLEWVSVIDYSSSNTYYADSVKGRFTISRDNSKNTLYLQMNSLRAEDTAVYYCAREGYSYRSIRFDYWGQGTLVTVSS VL: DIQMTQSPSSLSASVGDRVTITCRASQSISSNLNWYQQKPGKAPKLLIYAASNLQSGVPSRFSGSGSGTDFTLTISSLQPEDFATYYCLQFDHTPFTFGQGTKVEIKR
observed value: 50

Where do the numbers come from? From patent US20200308301A1.
